- system.name: T1, Cynomolgus v6-peptide (cynomolgus, UniProt A0A2K5VJE0 387-429, N-terminal biotin)
- T1 construct: domain: v6-region (43 amino acids); also called Cm v6-peptide; cm v6-peptide
- T1 peptide: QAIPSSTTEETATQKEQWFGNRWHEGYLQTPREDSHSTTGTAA
- assay.method.text: SPR SCK, antibody immobilised, peptide injected
measured.parameter: pKd
Would you please state pKd, meaning minus log10 of the concentration in mol/L, as a bare number?

pKd in this record for AL-MN114-71 IgG1 LALA IAHA (antibody, V domains shown, Human IgG1 LALA IAHA, kappa) VH: EVQLLESGGGLVQPGGSLRLSCAASGFSFRSFAMSWVRQAPGKGLEWVSAISGGGSSTFYADSVKGRFTISRDNSKNTLYLQMNSLRAEDTAVYYCARHYYSDSDYRSSAAMDYWGQGTLVTVSS VL: DIQMTQSPSSLSASVGDRVTITCRASQSISSYLNWYQQKPGKAPKLLIYAASTLQSGVPSRFSGSGSGTDFTLTISSLQPEDFATYYCQQDLYLLTFGQGTKLEIK : 7.89
